B1: glmS ribozyme (parent)
chain: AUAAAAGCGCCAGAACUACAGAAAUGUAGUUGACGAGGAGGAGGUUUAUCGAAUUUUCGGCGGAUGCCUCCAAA

- Variants of: B1
- assayComment: kcat; higher = faster cleavage; RNA array
- statedConditions: with glucosamine-6-phosphate
Fewer inactive variants are shown than the library holds.
Label rule, in plain words: kcat of 0.0002 s⁻¹ and up is 1, under 0.0002 s⁻¹ is -1.

mutationLabel	classification
A53C C58U	-1
A12G G13U	-1
A42C C67G	-1
G40C A48U	1
G59A	-1
G37U U69C	-1
G13C U31G C70U	-1
A12C G60A	-1
G32U U56A	1
G29U G60A	-1
A39G A64C	1
G29C U47C	-1
G13A U30G	1
G13U U54A	1
G32A A64C	-1
U49C U69G	-1
G62C U69A	-1
G32A U49A	-1
G66C C68U	1
A12C U65C	1
C58A A64C	-1
A42G C70U	1
A36C U55A	-1
A15U U31G U47A	1
G7A G37C U47A	-1
G29U U55C	1
C11U U55G C70G	-1
A39C C71A	-1
C50A C61U C70U	-1
G41U U45G	1
U65G C68A	-1
C58G C71U	-1
A15U U45C	1
G13C C16G U55A G60C C70G	-1
C10U A14C	-1
C10A	-1
C16U C71A	1
G37A U45G	1
A15U G35A	-1
C10G U49C	-1
A6U G60C C67A	-1
A12U G41A	1
G7C G38C	-1
C34G C70A	-1
G32A A42U C70A	-1
